System: 328373-195-R-J1-PDC complex spheroids, viability % test/control
Experiment: Anticancer human tumor 328373-195-R-J1-PDC patient-derived head and neck squamous carcinoma cell line growth inhibition [CLK]
Conditions: second compound 3.16 µM; first compound 0.316 µM; stronger effect = lower value
Response field label takes Condition met when viability, T/C is strictly below 4% and Condition not met in all other cases.

Worked cases, answers included:
1. COc1cccc2c1C(=O)c1c(O)c3c(c(O)c1C2=O)CC(O)(C(=O)CO)CC3OC1CC(N)C(O)C(C)O1 (stereo not given) + CNC(=O)c1ccc(Nc2nc(OC3CCCC3)c3c(-c4ccc5nc(C)oc5c4)c[nH]c3n2)c(OC)c1: Condition met
2. O=C(c1cc(Cc2n[nH]c(=O)c3ccccc23)ccc1F)N1CCN(C(=O)C2CC2)CC1 + CNC(=O)c1ccc(Nc2nc(OC3CCCC3)c3c(-c4ccc5nc(C)oc5c4)c[nH]c3n2)c(OC)c1: Condition not met

QUERY: State whether 4% exceeds viability, T/C recorded for C#Cc1c(F)ccc2cc(O)cc(-c3ncc4c(N5CC6CCC(C5)N6)nc(OCC56CCCN5CC(F)C6)nc4c3F)c12 (stereo not given) + CNC(=O)c1ccc(Nc2nc(OC3CCCC3)c3c(-c4ccc5nc(C)oc5c4)c[nH]c3n2)c(OC)c1 .
RESULT: Condition not met

QUERY: State whether 4% exceeds viability, T/C recorded for C#Cc1c(F)ccc2cc(O)cc(-c3ncc4c(N5CC6CCC(C5)N6)nc(OCC56CCCN5CC(F)C6)nc4c3F)c12 (stereo not given) + CN1CCN(c2cc(C(=O)Nc3cc4cc(-c5cnn(C)c5)ccc4cn3)ccn2)CC1 .
RESULT: Condition met

----------
System: 328373-195-R-J1-PDC complex spheroids, viability % test/control
Assay: Anticancer human tumor 328373-195-R-J1-PDC cell line growth inhibition [CLK];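 further: spheroids exposed to the agents for 7 days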
Settings: curve of first compound; second compound 10 µM
pIC50: −log10 of the molar value.
MEASURED_QUANTITY: pIC50

QUERY: Consider the compound CC(C)CC(NC(=O)C(Cc1ccccc1)NC(=O)c1cnccn1)B(O)O (stereo unspecified) + CN1CCN(c2cc(C(=O)Nc3cc4cc(-c5cnn(C)c5)ccc4cn3)ccn2)CC1 and give its recorded pIC50.
RESULT: > 9.02

----------
Tested on: 328373-195-R-J1-PDC complex spheroids, viability % test/control
Assay: Anticancer human tumor 328373-195-R-J1-PDC cell line growth inhibition [CLK];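 further: spheroids exposed to the agents for 7 days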
Conditions: second compound 10 µM; first compound 0.316 µM; stronger effect = lower value
Response field label takes true (1) when viability, T/C is strictly below 9% and false (0) in all other cases.

1) COc1c(OCCCN2CCOCC2)ccc2c3n(c(=NC(=O)c4cnc(N)nc4)nc12)CCN3 + CNC(=O)c1ccc(Nc2nc(OC3CCCC3)c3c(-c4ccc5nc(C)oc5c4)c[nH]c3n2)c(OC)c1: true (1)
2) O=C(c1cc(Cc2n[nH]c(=O)c3ccccc23)ccc1F)N1CCN(C(=O)C2CC2)CC1 + CN1CCN(c2cc(C(=O)Nc3cc4cc(-c5cnn(C)c5)ccc4cn3)ccn2)CC1: true (1)
3) CCCS(=O)(=O)Nc1ccc(F)c(C(=O)c2c[nH]c3ncc(-c4ccc(Cl)cc4)cc23)c1F + CNC(=O)c1ccc(Nc2nc(OC3CCCC3)c3c(-c4ccc5nc(C)oc5c4)c[nH]c3n2)c(OC)c1: false (0)

Okay, next one:
QUERY: State whether 9% exceeds viability, T/C recorded for CC(CO)NC(=O)c1cc(-c2ccc(Cl)cc2)nn(-c2cnn(C)c2)c1=O (stereo not given) + CNC(=O)c1ccc(Nc2nc(OC3CCCC3)c3c(-c4ccc5nc(C)oc5c4)c[nH]c3n2)c(OC)c1 .
RESULT: false (0)

----------
Test system: 328373-195-R-J1-PDC complex spheroids, viability % test/control
Experiment: Anticancer human tumor 328373-195-R-J1-PDC cell line growth inhibition [CLK]; active means viability on the fitted dose curve at most 10% of control; inactive means the rest;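 further: spheroids exposed to the agents for 7 days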
Conditions: second compound 0.1 µM; first compound 1 µM
Respond only with the outcome that fits, drawn from YES (active), NO (inactive)

Worked cases, answers included:
1) CCN1CCN(Cc2ccc(Nc3ncc(F)c(-c4cc(F)c5nc(C)n(C(C)C)c5c4)n3)nc2)CC1 + CNC(=O)c1ccc(Nc2nc(OC3CCCC3)c3c(-c4ccc5nc(C)oc5c4)c[nH]c3n2)c(OC)c1: NO
2) COc1c(OCCCN2CCOCC2)ccc2c3n(c(=NC(=O)c4cnc(N)nc4)nc12)CCN3 + CN1CCN(c2cc(C(=O)Nc3cc4cc(-c5cnn(C)c5)ccc4cn3)ccn2)CC1: NO
3) C=CC(=O)N1CCN(c2nc(=O)n(-c3c(C)ccnc3C(C)C)c3nc(-c4c(O)cccc4F)c(F)cc23)C(C)C1 (stereo not given) + CNC(=O)c1ccc(Nc2nc(OC3CCCC3)c3c(-c4ccc5nc(C)oc5c4)c[nH]c3n2)c(OC)c1: NO
4) CC(CO)NC(=O)c1cc(-c2ccc(Cl)cc2)nn(-c2cnn(C)c2)c1=O (stereo not given) + CNC(=O)c1ccc(Nc2nc(OC3CCCC3)c3c(-c4ccc5nc(C)oc5c4)c[nH]c3n2)c(OC)c1: NO

Okay, next one:
QUERY: What was the test verdict on C#Cc1c(F)ccc2cc(O)cc(-c3ncc4c(N5CC6CCC(C5)N6)nc(OCC56CCCN5CC(F)C6)nc4c3F)c12 (stereo not given) + CNC(=O)c1ccc(Nc2nc(OC3CCCC3)c3c(-c4ccc5nc(C)oc5c4)c[nH]c3n2)c(OC)c1 ?
RESULT: YES

----------
Test system: 328373-195-R-J1-PDC complex spheroids, viability % test/control
Experiment: Anticancer human tumor 328373-195-R-J1-PDC cell line growth inhibition [CLK];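 further: spheroids exposed to the agents for 7 days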
Conditions: curve of first compound; second compound 3.16 µM
pIC50: −log10 of the molar value.
MEASURED_QUANTITY: pIC50

Solved entries (count: 2):
1) C#Cc1c(F)ccc2cc(O)cc(-c3ncc4c(N5CC6CCC(C5)N6)nc(OCC56CCCN5CC(F)C6)nc4c3F)c12 (stereo unspecified) + CN1CCN(c2cc(C(=O)Nc3cc4cc(-c5cnn(C)c5)ccc4cn3)ccn2)CC1: > 7.50
2) Cn1ncnc1[C@H]1c2n[nH]c(=O)c3cc(F)cc(c23)N[C@@H]1c1ccc(F)cc1 + CNC(=O)c1ccc(Nc2nc(OC3CCCC3)c3c(-c4ccc5nc(C)oc5c4)c[nH]c3n2)c(OC)c1: > 9.50

QUERY: Consider the molecule CC(C)CC(NC(=O)C(Cc1ccccc1)NC(=O)c1cnccn1)B(O)O (stereo unspecified) + CNC(=O)c1ccc(Nc2nc(OC3CCCC3)c3c(-c4ccc5nc(C)oc5c4)c[nH]c3n2)c(OC)c1 and give its recorded pIC50.
RESULT: > 9.02

QUERY: Consider the molecule COC1C=CCC(C)C(C)S(=O)(=O)NC(=O)c2ccc3c(c2)N(CC2CCC21)CC1(CCCc2cc(Cl)ccc21)CO3 (stereo unspecified) + CNC(=O)c1ccc(Nc2nc(OC3CCCC3)c3c(-c4ccc5nc(C)oc5c4)c[nH]c3n2)c(OC)c1 and give its recorded pIC50.
RESULT: > 7.50

----------
Test system: 328373-195-R-J1-PDC complex spheroids, viability % test/control
Test: Anticancer human tumor 328373-195-R-J1-PDC cell line growth inhibition [CLK];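 further: spheroids exposed to the agents for 7 days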
Conditions: second compound 3.16 µM; first compound 0.1 µM; stronger effect = lower value
From the text: A high-throughput screen of multi-cell type tumor spheroids was designed to identify active combinations of […] and targeted small molecules. Complex spheroids include a stromal component modeled by human endothelial cells (HUVEC) and fibroblasts modeled by human mesenchymal stem cells (MSCs). […] Compounds. […] If the clinical Cmax for an agent had not been determined, the highest concentration tested was 10 microM. […]
Bucketed by reported viability, T/C, buckets being interval 1 = under 2%, interval 2 = from 2% up to 9%, interval 3 = 9% and over

QUERY: Band for the recorded viability, T/C of COc1cccc2c1C(=O)c1c(O)c3c(c(O)c1C2=O)CC(O)(C(=O)CO)CC3OC1CC(N)C(O)C(C)O1 (stereo not given) + CNC(=O)c1ccc(Nc2nc(OC3CCCC3)c3c(-c4ccc5nc(C)oc5c4)c[nH]c3n2)c(OC)c1 ?
RESULT: interval 2

QUERY: Band for the recorded viability, T/C of COc1c(OCCCN2CCOCC2)ccc2c3n(c(=NC(=O)c4cnc(N)nc4)nc12)CCN3 + CNC(=O)c1ccc(Nc2nc(OC3CCCC3)c3c(-c4ccc5nc(C)oc5c4)c[nH]c3n2)c(OC)c1 ?
RESULT: interval 3

QUERY: Band for the recorded viability, T/C of Nc1ccn(C2OC(CO)C(O)C2(F)F)c(=O)n1 (stereo not given) + CN1CCN(c2cc(C(=O)Nc3cc4cc(-c5cnn(C)c5)ccc4cn3)ccn2)CC1 ?
RESULT: interval 1

QUERY: Band for the recorded viability, T/C of CC(Nc1ccc2c(c1)OCCn1cc(N3C(=O)OCC3C(F)F)nc1-2)C(N)=O (stereo not given) + CN1CCN(c2cc(C(=O)Nc3cc4cc(-c5cnn(C)c5)ccc4cn3)ccn2)CC1 ?
RESULT: interval 1

QUERY: Band for the recorded viability, T/C of COC1C=CCC(C)C(C)S(=O)(=O)NC(=O)c2ccc3c(c2)N(CC2CCC21)CC1(CCCc2cc(Cl)ccc21)CO3 (stereo not given) + CN1CCN(c2cc(C(=O)Nc3cc4cc(-c5cnn(C)c5)ccc4cn3)ccn2)CC1 ?
RESULT: interval 2

QUERY: Band for the recorded viability, T/C of Nc1ccn(C2OC(CO)C(O)C2(F)F)c(=O)n1 (stereo not given) + CNC(=O)c1ccc(Nc2nc(OC3CCCC3)c3c(-c4ccc5nc(C)oc5c4)c[nH]c3n2)c(OC)c1 ?
RESULT: interval 2

QUERY: Band for the recorded viability, T/C of CCc1c2c(nc3ccc(O)cc13)-c1cc3c(c(=O)n1C2)COC(=O)[C@]3(O)CC + CN1CCN(c2cc(C(=O)Nc3cc4cc(-c5cnn(C)c5)ccc4cn3)ccn2)CC1 ?
RESULT: interval 2

QUERY: Band for the recorded viability, T/C of CC1COCCN1c1cc(C2(S(C)(=N)=O)CC2)nc(-c2ccnc3[nH]ccc23)n1 (stereo not given) + CNC(=O)c1ccc(Nc2nc(OC3CCCC3)c3c(-c4ccc5nc(C)oc5c4)c[nH]c3n2)c(OC)c1 ?
RESULT: interval 3

QUERY: Band for the recorded viability, T/C of CC1(C)CCC(CN2CCN(c3ccc(C(=O)NS(=O)(=O)c4ccc(NCC5CCOCC5)c([N+](=O)[O-])c4)c(Oc4cnc5[nH]ccc5c4)c3)CC2)=C(c2ccc(Cl)cc2)C1 + CNC(=O)c1ccc(Nc2nc(OC3CCCC3)c3c(-c4ccc5nc(C)oc5c4)c[nH]c3n2)c(OC)c1 ?
RESULT: interval 3
